- Subject of test: Calcium and integrin-binding protein 1 (Homo sapiens) (UniProt Q99828)
- Sequence (Q99828 whole entry, looked up): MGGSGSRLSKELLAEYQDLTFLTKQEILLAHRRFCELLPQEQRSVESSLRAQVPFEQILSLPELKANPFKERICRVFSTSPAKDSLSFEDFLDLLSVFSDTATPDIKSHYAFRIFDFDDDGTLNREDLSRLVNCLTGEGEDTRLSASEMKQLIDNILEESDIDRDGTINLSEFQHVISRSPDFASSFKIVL
- Run description: Primary qHTS for Identification of Calcium Integrin Binding Protein 1 (CIB1) Competitor (AID 1508620);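 note: GST tagged CIB1 binding a fluorescein labelled alphaIIb integrin peptide tracer; top concentration of the series differs between compounds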
- Condition summary: CIB1-GST / FITC-alphaIIb peptide fluorescence polarization; series mostly up to 57.7 µM
Inconclusive results are not listed. Activity calls are given as the source filed them. Calls come from the whole dose curve; as a rule, active = well fitted inhibition curve with a large enough effect; inconclusive = small, poorly fitted or top-dose-only effect; inactive = flat fitted curve, though single readings scatter.
Property label: activity change, negative = inhibition

Illustrative cases are given below, each with its answer.
Molecule	Val
COCCCc1sc(-c2ccccc2)nc1C(=O)Nc1ccccc1-c1nc2cc(CN3CCCC3)cnc2s1	inactive
COC(=O)C1(O)C(OC(C)=O)CCC2C3(CC(c4ccoc4)OC3=O)C(C)=CCC21C(=O)OC (configuration not stated)	inactive
COC(=O)C1=COC(OC2OC(CO)C(O)C(O)C2O)C2C(COC(=O)/C=C/c3ccc(O)c(O)c3)C(O)C(O)C12 (configuration not stated)	inactive
CC1CCCCCCCc2cc(O)cc(O)c2C(=O)O1 (configuration not stated)	inactive

Go through the items and report each one's activity change, negative = inhibition.
1. CC1=C(CCC(C)O[C@@H]2O[C@H](CO)[C@@H](O)[C@H](O)[C@H]2O)C(C)(C)CC(O)C1 (some centres not stated)
2. COC(=O)C1=COC(O[C@@H]2O[C@H](CO)[C@@H](O)[C@H](O)[C@H]2O)C2C(C)C(=O)CC12 (some centres not stated)
3. O=C(OCC(O)CO[C@@H]1O[C@H](C(=O)O)[C@@H](O)[C@H](O)[C@H]1O)c1ccccc1 (some centres not stated)
4. CC(=O)O[C@@H]1C[C@@H](C)[C@](O)(CCC2=CC(=O)OC2)[C@@]2(C)CCCC(C)(C)C12 (some centres not stated)
5. CC(=O)N[C@H]1[C@H](O[C@H]2CC[C@]3(C)C4CC=C5[C@@H]6CC(C)(C)CC[C@]6(C(=O)O)[C@H](O)C[C@@]5(C)[C@]4(C)CC[C@H]3C2(C)C)O[C@H](CO)[C@@H](O)[C@@H]1O (some centres not stated)
6. CC(C)(O)C1CCC2(C)CCCC(C)(O)C2C1 (configuration not stated)

1: inactive; 2: inactive; 3: inactive; 4: inactive; 5: inactive; 6: inactive

Go through the items and report each one's activity change, negative = inhibition.
1. CC1=C[C@@H]2[C@H]3[C@@H]4O[C@@](C)(CC[C@H]4O)[C@H]3CC(=O)[C@]23C(=O)N[C@@H](CC(C)C)[C@@H]3[C@@H]1C
2. COc1cc(C(=O)OC[C@H]2O[C@@H](OC(C)(C)C(=O)O)[C@H](O)[C@@H](O)[C@@H]2O)cc(OC)c1O
3. CC1C2=CC(=O)OC2(O)CC2C1C(O)CC1C(C)(CO)CCCC21C (configuration not stated)

["inactive", "inactive", "inactive"]

###

- Tested on: OV90
- Run description: Primary qHTS to identify gynecologic anti-cancer compounds using libraries of approved drugs and bioactive compounds (AID 1345084); note: nearly all actives have a fitted effect of over 55% in size
- Condition summary: Gynecologic cancer cell panel viability, ATPlite luminescence, 48 h; series mostly up to 57.5 µM
Records with an inconclusive call do not appear. Active and inactive are the calls of the source. The call rests on the fitted dose curve; in most records, active means well fitted cell-killing curve with a large enough effect; inconclusive means small, poorly fitted or top-dose-only effect, or effect the other way; inactive means flat fitted curve, though single readings scatter.
Property label: activity change, negative = cytotoxicity

Illustrative cases are given below, each with its answer.
Compound	activity change, negative = cytotoxicity
Fc1ccccc1-c1nc2ccn(Cc3ccc(-c4ccc(C(F)(F)F)cc4C(F)(F)F)nn3)cc-2n1	inactive
CC1(C)CC[C@]2(C(=O)O)CC[C@]3(C)C(=CCC4[C@@]5(C)C(=O)C[C@H](O)[C@@](C)(CO)C5CC[C@]43C)[C@@H]2C1 (some centres undefined)	inactive
CC1=C2C3OC(=O)C(C)C3(O)CCC2(C)CCC1 (centres undefined)	inactive
CS(=O)(=O)c1ccccc1N1CCN(c2nc3c(c(=O)[nH]2)CSCC3)CC1	inactive
Oc1ccc2c(-c3c(-c4ccccn4)nn4c3CCC4)ccnc2c1	inactive
CC1=CC(=O)C(=C(C)C)CC2C(C)(O)CCC12O (centres undefined)	inactive
FC(F)(F)Oc1ccc(-c2ccc3nnc(C(F)(F)F)n3c2)cc1	inactive
CC1(C)C(=O)N2c3ccccc3C(O)(CC(C(=O)O)n3cnc4ccccc4c3=O)C2N1O (centres undefined)	inactive

Provide measured activity change, negative = cytotoxicity value, entry: CC1CC(=O)[C@]2(O)C(C(=O)OCCc3ccc(O)cc3)=CO[C@@H](O[C@@H]3O[C@H](CO)[C@@H](O)[C@H](O)[C@H]3O)[C@H]12 (some centres undefined)
inactive

###

- Run description: Primary qHTS for inhibitors of nuclear receptor binding SET domain protein 2 (NSD2) in an RCH-ACV wild type WT cells (2C) (AID 1645877); note: nearly all actives have a fitted effect of over 70% in size
- Condition summary: RCH-ACV (leukaemia line) NSD2 WT (2C) viability, CellTiter-Glo, 72 h; series mostly up to 44.9 µM
Records with an inconclusive call do not appear. Calls of active or inactive are those of the source. The call rests on the fitted dose curve; in most records, active means well fitted inhibition curve with a large enough effect; inconclusive means small, poorly fitted or top-dose-only effect; inactive means no such curve, though single readings can be large or run the other way.
Property label: activity change, negative = cell killing

Illustrative cases are given below, each with its answer.
Compound	activity change, negative = cell killing
CC1=C2CC(=O)C(C)CC/C=C(\C)CC2OC1=O (stereo not drawn)	inactive
Cc1cc(Cn2cnc3c2CC(C(=O)O)N(C(=O)C(c2ccccc2)c2ccccc2)C3)ccc1N(C)C (stereo not drawn)	inactive
CC1=CCC(O)C2(C)CCC3C(C)C(=O)OC3C12 (stereo not drawn)	inactive
CSCC1OC(n2cnc3c(=O)[nH]cnc32)C(O)C1O (stereo not drawn)	inactive
Cc1cn(C[C@H](N)C(=O)O)c(=O)n(Cc2ccsc2C(=O)O)c1=O	inactive

Go through the items and report each one's activity change, negative = cell killing.
1. CC1(C)CC[C@]2(C(=O)O[C@@H]3O[C@H](CO)[C@@H](O)[C@H](O)[C@H]3O)CC[C@]3(C)C(=CCC4[C@@]5(C)C[C@@H](O)[C@H](O)[C@@](C)(CO)C5[C@H](O)C[C@]43C)C2C1 (stereo partly drawn)
2. COC1OC(OC)C(O)(CCC2(C)C(C)CCC3(C)C2CC(O)C(O)C32CO2)C1O (stereo not drawn)
3. COC(=O)C1=CO[C@@H](O[C@@H]2O[C@H](CO)[C@@H](O)[C@H](O)[C@H]2O)[C@@H]2[C@@H](CO)[C@@H](O)C(O)[C@H]12 (stereo partly drawn)

1. inactive
2. inactive
3. inactive

###

- Test system: Zika virus NS2B-NS3 protease (linked construct)
- Run description: Primary screen NINDS Rhodamine qHTS for Zika virus inhibitors (AID 1347160); note: nearly all actives have a fitted effect of over 55% in size
- Condition summary: purified NS2B-NS3 protease, Rhodamine110 substrate fluorescence; series mostly up to 33.1 µM
Results filed as inconclusive are left out. Active and inactive are the calls of the source. Calls come from the whole dose curve; as a rule, active = well fitted inhibition curve with a large enough effect; inconclusive = small, poorly fitted or top-dose-only effect; inactive = no such curve, though single readings can be large or run the other way.
Your answer must be one of the following: active, inactive

Molecule	Assigned class
NC1Nc2ccccc2C1(N)CC1NC(=O)C(Cc2ccccc2)NC(=O)C(Cc2ccccc2)NC1=O (stereo not given)	inactive
OC[C@@]1(O)CO[C@H](OC[C@H]2O[C@@H](OCCc3ccccc3)[C@H](O)[C@@H](O)[C@@H]2O)[C@@H]1O	inactive
CC1=CC(=O)[C@]2(O[C@@H]3O[C@@H](C)[C@H](O)[C@@H](O)[C@H]3O)C=CO[C@@H](O[C@@H]3O[C@H](CO)[C@@H](O)[C@H](O)[C@H]3O)[C@H]12	inactive
O=C(/C=C/c1ccc(O)cc1)OC[C@H]1O[C@H](O[C@@]2(CO)O[C@@H](CO)[C@H](O)[C@H]2O)[C@H](O)[C@@H](O)[C@@H]1O	inactive
CC(=O)OCC1OC(O[C@H]2CC[C@@]3(C)C(CC[C@]4(C)C3CC=C3[C@@H]5CC(C)(C)CC[C@]5(C(=O)O)CC[C@]34C)[C@]2(C)CO)C(O)C(O)C1OC1OC(C)C(O)C(OC2OCC(O)C(O)C2O)C1O (stereo not given in full)	inactive
Cc1nc2ccccc2c(-c2ccc3c4c(ccnc24)CCO3)c1[C@H](OC(C)(C)C)C(=O)O	inactive
Cc1ccc(Nc2nnc(-c3ccc([N+](=O)[O-])cc3)o2)cc1Cl	inactive
COc1cc(/C=C/C(=O)O[C@@H]2C[C@@](O)(C(=O)O)C[C@@H](O)[C@@H]2O)ccc1O	inactive

// outcome(item) with item = COC(=O)C1=CO[C@@H](O[C@@H]2O[C@H](CO)[C@@H](O)[C@H](O)[C@H]2O)[C@@H]2C(C)CC(=O)[C@]12O (stereo not given in full)
inactive

// outcome(item) with item = COc1cccc(OC)c1-c1nc(C(=O)N[C@@H](CC(C)C)C(=O)O)cn1-c1ccnc2cc(Cl)ccc12
inactive

// outcome(item) with item = CCNC(=O)C1CC(F)(c2ccc(CN3CCCC3)c(F)c2)C1 (stereo not given)
inactive

// outcome(item) with item = CC1C2=CC(=O)OC2(O)CC2C1C(O)CC1C(C)(CO)CCCC21C (stereo not given)
inactive

// outcome(item) with item = COC(=O)C1=COC(O[C@@H]2O[C@H](CO)[C@@H](O)[C@H](O)[C@H]2O)C2C(C)C(=O)CC12 (stereo not given in full)
inactive

// outcome(item) with item = COc1ccc(C(=O)CC(=O)O)c2c1C=CC(C)(C)O2
inactive

// outcome(item) with item = CC(C)c1ccc2c(c1)C(=O)CC1C(C)(C(=O)O)CCCC21C (stereo not given)
inactive
